Sourced from the pKa sets of Baltruschat and Czodrowski (2020)

conditions: basic group
attribute-measured: pKa

INSERT INTO measurements (compound, result) VALUES
  ('CC1CCN(C)C(C)(C)C1 (centres undefined)', 10.2),
  ('CN(C)CCCCCNC(=O)/C=N/[O-]', 10.3),
  ('NC(=S)C1(N)CCCCC1', 7.23),
  ('CN(C)/C=N/c1ccc(O)cc1', 8.28),
  ('Cc1nn(C)c(C)c1C', 4.48),
  ('COc1cccnc1', 4.89),
  ('Oc1ccc2nccnc2c1', 1.4),
  ('CC(=O)N1CCN(C)CC1', 7.1),
  ('Cc1ccc2cccnc2c1', 5.25);

---

details: basic group
Would you please tag the item 1.0 when its pKa is 7 or above, and 0.0 when it is below?

INSERT INTO assay_data (molecule, classification) VALUES
  ('CCN(C)CCOCCN(CC)CC', 1.0),
  ('N=C(N)Nc1nc(N)nc(N)n1', 1.0),
  ('CCOC(=O)Cc1ccccn1', 0.0),
  ('Nc1nccc2c1[nH+]cn2CCOCP(=O)(O)O', 0.0),
  ('OCCN1CCNCC1', 1.0),
  ('Nc1nncc2ccccc12', 0.0),
  ('Nc1nc(NCO)nc(NCO)n1', 0.0),
  ('CC1=Nc2ccc([N+](=O)[O-])cc2N=C(C)C1', 0.0),
  ('C=C(C)C(=O)NCCN(C)C', 1.0),
  ('Cc1ccc2ccccc2n1', 0.0),
  ('Cc1cc([O-])n(C2CCN(C)CC2)n1', 1.0),
  ('NC1(C(=O)[O-])CCCCC1', 1.0),
  ('Nc1ccc(Oc2ccc(N)cc2)cc1', 0.0),
  ('Clc1ccc(C(Cn2ccnc2)OCc2ccc(Sc3ccccc3)cc2)c(Cl)c1 (stereo unspecified)', 0.0),
  ('NC(CO)CO', 1.0);

---

conditions: basic group
attribute-measured: pKa

INSERT INTO assay_data (compound, quantitative_readout) VALUES
  ('Cc1cc(-c2cc(C)n(C)n2)nn1C', 2.22),
  ('Cc1cc([O-])ncn1', 9),
  ('C#CC(C)(C)N(C)C(C)C', 8.7),
  ('COc1ccc(S(=O)(=O)CCN2CCOCC2)c(OC)c1OC', 4.89),
  ('Nc1ccc(O)c(N)c1', 5.7),
  ('Cc1cnc([O-])nc1N', 12.4),
  ('Nc1nc2ccccc2nc1N', 4.7),
  ('CC(C)[C@H]1CN[C@H](C(=O)[O-])[C@H]1CC(=O)[O-]', 10.6),
  ('NCCN1CCOCC1', 9.45),
  ('COc1ccc(-c2nc3ncccc3[nH]2)c(OC)c1', 4.63),
  ('Cc1ccc(-c2ncc(-c3ccc(Br)cc3)o2)cc1', 0.87),
  ('C[NH+](C)Cc1cnc2ccc(-c3ccccc3)nn12', 2.99),
  ('NC(=S)c1ccccc1', -3.2),
  ('CC(=O)c1ccccn1', -0.46),
  ('Cc1ccccc1CN(C)C', 8.71),
  ('Cc1cc2ncn([C@H]3O[C@@H](CO)[C@H](O)[C@@H](O)[C@@H]3O)c2cc1C', 4.63),
  ('Cn1c(CBr)nc2c(O)ccc(O)c21', 3.99),
  ('O=C(O)c1ccc[nH+]c1', -2.4),
  ('O=C([O-])CN=C1CCCCC1', 9.48),
  ('Cc1csc2nccn12', 5.36),
  ('Cc1nc2cncnc2nc1C', 2.93),
  ('O=[N+]([O-])c1ccc2[nH]c(C(F)(F)Cl)nc2c1', 0.77),
  ('CN(C)N(C)C', 6.19),
  ('c1cc(-c2cc[nH+]cc2)ccn1', 3.17),
  ('O=C([O-])[C@@H]1O[C@H](Oc2cnc3ccccc3c2)[C@@H](O)[C@H](O)[C@H]1O', 3.95),
  ('NCC[NH2+]Cc1ccccc1', 6.48),
  ('CC(C)CCNc1ncnc2[nH]ncc12', 4.62),
  ('Cn1c[nH+]c2cc(N)ccc21', 3.09),
  ('O=C([O-])C1CCN1 (stereo not drawn)', 9.54),
  ('CC(=O)N(C)c1ccccn1', 2.01),
  ('O=C([O-])C1CCCN1 (stereo not drawn)', 10.6),
  ('N#CC(C#N)=NNc1ccccc1C(=O)O', -0.96),
  ('CCN(C)N(C)C', 6.38),
  ('OCCN(CCO)CCc1nnn[nH]1', 9.2),
  ('C[C@@H]1CNC[C@H](C)[NH2+]1', 5.4),
  ('CN(C)c1cccc2ccccc12', 4.83),
  ('C=CC(C)(CC)N(C)C(C)C (stereo not drawn)', 11.3),
  ('C=C(C)C(=O)OCCN(C)CCCC', 8.27),
  ('Cc1cc(C)c2cccc(O)c2n1', 6.2),
  ('Sc1cccnc1', 2.28),
  ('[NH3+]CCCCCc1cccnc1', 5.61),
  ('Nc1nc(N)c2[nH]cnc2n1', 5.05),
  ('Nc1ccnc(-c2cc(Cl)ccn2)c1', 7.4),
  ('C(=N\c1ccccc1)/c1ccccc1', 4.55),
  ('Nc1cccc2ncncc12', 3.57),
  ('Cc1ccccc1N(C)C', 6),
  ('N#CC1CC2CCN1CC2 (stereo not drawn)', 5.85),
  ('CC(C)(C)CN', 10.2),
  ('Nc1ccc(N)cc1', 6.16),
  ('NCc1cc(Cl)ccc1[N+](=O)[O-]', 8.19),
  ('C[C@H]1O[C@H](O[C@H]2CC[C@H](n3ccc(N)nc3=O)O[C@@H]2C)[C@H](O)[C@@H](O)[C@@H]1N(C)C', 7),
  ('NC(=O)/C=C(\O)c1cccnc1', 8.01),
  ('Nc1ccc(S(=O)(=O)NCc2ccco2)cc1', 2.25),
  ('CN(C)c1nc2c(o1)CCCC2', 6.16),
  ('CN1CCCC1c1cccnc1 (stereo not drawn)', 8.06),
  ('CCOc1ccc2ccc(OCC)c(N3CCOCC3)c2c1N1CCOCC1', 12.5),
  ('CN(C)c1cccc(C#N)c1', 2.97),
  ('N#Cc1ccc(CN)cc1', 8.72),
  ('CC(C#N)CN (stereo not drawn)', 7.75),
  ('C[C@H](N)[C@H](O)c1ccccc1', 8.81),
  ('O=C(O)c1ccc(/N=C/c2ccccc2)cc1', 1.97),
  ('Cc1ccc([N+](=O)[O-])cc1/C(=N/CCC[NH+](C)C)c1ccccc1', 3.14),
  ('Cc1ccn(C)c2nc3ccccc3c1-2', 8.35);

---

conditions: basic group
# label = TRUE if pKa >= 9 else FALSE

INSERT INTO measurements (compound, classification) VALUES
  ('CC1CCCC(C(=O)[O-])N1 (stereo not given)', 'TRUE'),
  ('CC(C)(C)c1ccnc(C(C)(C)C)c1', 'FALSE'),
  ('CCC(C)(C)N(C)C(C)C', 'TRUE'),
  ('CCc1cc(Cl)c([O-])c(C(=O)NC[C@H]2CCCN2CC)c1OC', 'TRUE'),
  ('NCCc1cccc(O)c1O', 'FALSE'),
  ('Nc1n[nH]c(N)c1/N=N/c1ccc(O)cc1', 'FALSE'),
  ('CN(C)c1nc2ncncc2[nH]1', 'FALSE'),
  ('CC1CNCc2ccccc2OCCOc2ccccc2CN1 (stereo not given)', 'TRUE'),
  ('[O-]c1ncc2ccccc2n1', 'TRUE'),
  ('O=C(O)c1ccc(O)c2ncccc12', 'FALSE'),
  ('CC(C)CN[C@H](c1ccccc1)[C@H](O)c1ccccc1', 'TRUE'),
  ('Nc1ccc2c(c1Br)CCCC2', 'FALSE'),
  ('COc1ccc(NCO)cc1', 'FALSE');

---

details: basic group
Where a SMILES comes first, the peptide text is derived from it.
attribute-measured: pKa

INSERT INTO assay_data (compound, quantitative_readout) VALUES
  ('c1cc(N2CCOCC2)c2c(N3CCOCC3)cccc2c1', 7.49),
  ('CCc1ccc(N)cc1', 5.16),
  ('Cc1cccc(/N=N/c2ccc(N)cc2)c1', 2.88),
  ('[NH3+]CCCc1cccnc1', 5.19),
  ('[SH2+]c1ccc2ncccc2c1', 3.95),
  ('[O-]c1cc2ccccc2cc1C1=NCCN1', 10.8),
  ('Cc1ccc(CN)cc1', 9.51),
  ('N[C@@H](Cc1c[nH]cn1)C(=O)NCC(=O)[O-] (H-His-Gly-OH)', 7.82);

---

settings: basic group
# key: entry, value: pKa
attribute-measured: pKa

INSERT INTO results (compound, attribute_measured, quantitative_readout) VALUES
  ('C[NH+](C)CCC/N=C(\c1ccccc1)c1ccccc1-c1ccccc1', 'pKa', 4.43),
  ('Nc1nnc(-c2ccccc2)s1', 'pKa', 2.9),
  ('CCOc1nccc([O-])n1', 'pKa', 8.2),
  ('CN(C)/C=N/c1cccc(Br)c1', 'pKa', 8.08),
  ('Cc1cccnn1', 'pKa', 3.46),
  ('Clc1ccccn1', 'pKa', 0.72),
  ('CCCCNCCCC', 'pKa', 11.3),
  ('CC[NH+](CC)CCCC(C)Nc1cc(OC)cc2ccc[nH+]c12 (stereo unspecified)', 'pKa', -1.33),
  ('CCC(C)NC(C)CC (stereo unspecified)', 'pKa', 10.9),
  ('NCc1ccc(O)c(O)c1', 'pKa', 8.6),
  ('Cc1ccc(CN2CC(O[Si](C)(C)C)C2)cc1', 'pKa', 8.24),
  ('Cc1ccc(S(=O)C(C)(C)C)cc1 (stereo unspecified)', 'pKa', -2.2),
  ('C#CCCN', 'pKa', 9.23),
  ('CCN(CC)CCCNS(=O)(=O)c1ccc(OC)c(OC)c1OC', 'pKa', 9.54),
  ('Clc1ccc(/C=C/c2nnnn2-c2ccccc2)cc1', 'pKa', -2.54),
  ('CCNCC[NH2+]CC', 'pKa', 7.7),
  ('Cc1ccccc1NC1CCCC1', 'pKa', 5.07),
  ('COc1ccc(/N=N/c2ccncc2)cc1', 'pKa', 4.53),
  ('CC1(C)SCNC1C(=O)[O-] (stereo unspecified)', 'pKa', 6.34),
  ('Nc1nccnn1', 'pKa', 4),
  ('CC(C)NCC(O)COc1ccccc1 (stereo unspecified)', 'pKa', 9.45),
  ('CCCn1cncn1', 'pKa', 2.36),
  ('CN(C)C', 'pKa', 9.96),
  ('CN(C)C1CC(C)(C)[NH2+]C(C)(C)C1', 'pKa', 7.67),
  ('CCN(CC)CCC#N', 'pKa', 7.62),
  ('N#Cc1cc(-c2ccccc2)nnc1NCCN1CCOCC1', 'pKa', 6.5),
  ('Oc1ccc2cnc3ccccc3c2c1', 'pKa', 5.35),
  ('NCCCCCCCCCCC(=O)[O-]', 'pKa', 11),
  ('CC1=NCCS1', 'pKa', 5.29),
  ('c1ccc(CNc2nc[nH+]c3[nH]cnc23)cc1', 'pKa', -1),
  ('N=C(c1ccccc1)c1ccccc1', 'pKa', 6.82),
  ('NOCc1ccccc1', 'pKa', 4.34),
  ('Cn1c(CCl)nc2c(O)ccc(O)c21', 'pKa', 4.03),
  ('ONc1ncnc2nc[nH]c12', 'pKa', 3.8),
  ('Cn1/c(=N/N)ccc2ccccc21', 'pKa', 9.17),
  ('C/C(=C(/S)CCO)N(C=O)Cc1cnc(C)nc1N', 'pKa', 4.19),
  ('CNc1cccc2ccccc12', 'pKa', 3.7),
  ('O=S(=O)([O-])c1ccncc1', 'pKa', 3.44),
  ('O=c1[nH]c(=O)n(-c2ccccc2)[nH]1', 'pKa', -4.1),
  ('[O-]/C(=C/c1ccncc1)c1ccccc1', 'pKa', 7.05),
  ('Cc1ccccc1C(=NCCC[NH+](C)C)c1ccccc1C', 'pKa', 4.3),
  ('C=C[C@]1(O)CN2CC[C@H]1C[C@H]2[C@H](O)c1cc([O-])[nH+]c2ccccc12', 'pKa', 7.65),
  ('Cc1cccc(C)c1NC(=O)CN(C)C', 'pKa', 7.36),
  ('COc1nccc2ccccc12', 'pKa', 3.05),
  ('CCN(CC)CCNc1nc(C)nc(Nc2ccc(Cl)cc2)n1', 'pKa', 9.3),
  ('[NH3+]CCc1ccccn1', 'pKa', 3.93),
  ('CSC(=N)c1ccccc1', 'pKa', 5.84),
  ('CN(C)c1ncc(Br)s1', 'pKa', 3.66),
  ('CCOCCN(CCOCC)c1ccccc1', 'pKa', 4.1),
  ('Sc1cnc2ccccc2c1', 'pKa', 2.33),
  ('Brc1cncc2ccccc12', 'pKa', 3.54),
  ('COc1ccc(OC)c(N)c1', 'pKa', 3.72),
  ('CN1CCN(C)c2cccc3cccc1c23', 'pKa', 4.62),
  ('CSc1cccnc1', 'pKa', 4.45),
  ('CCC(CO)NCl (stereo unspecified)', 'pKa', 1.55),
  ('COc1nccc(C)n1', 'pKa', 2.1),
  ('CCC(O)CN(C)CC(C)O (stereo unspecified)', 'pKa', 8.9),
  ('Cc1ccc(N)cc1', 'pKa', 5.04),
  ('CNCCN(C)CC[NH2+]C', 'pKa', 9.84),
  ('CN(C1=NCCCO1)c1ccccc1', 'pKa', 10.7),
  ('Cn1c(=O)[nH]c2nc[nH]c2c1=O', 'pKa', 1.19),
  ('[NH3+]c1ccc(-c2ncc(-c3ccccc3)o2)cc1', 'pKa', 0.06),
  ('NC(N)=S', 'pKa', -0.96),
  ('Nc1ccc(C(=O)c2ccc(N)cc2)cc1', 'pKa', 2.92),
  ('Cc1cc(N)ccc1-c1ccc([NH3+])cc1C', 'pKa', 3.7),
  ('NC(=O)CCCCc1cccnc1', 'pKa', 5.6);
